Origin of the recorded values: paper PMC13198257

assay-remarks: Cytotoxicity in HepG2 hepatocytes
Format: cell-based
reported-conditions: human, HepG2 cells
endpoint-name: CC50 (µM)
Lab book: enter the figure in µM, no units written.

>  <compound>
O=C1NC(=O)C(Cc2ccc(OCCN3CCN(C(=O)OCc4cc(Cl)cc(Cl)c4)CC3)cc2)S1 (centres unmarked) [Compound 5]

>  <CC50 / µM>
90.3

$$$$
>  <compound>
COC(=O)c1ccc2c(c1)NC(=O)/C2=C(\Nc1ccc(N(C)C(=O)CN2CCN(C)CC2)cc1)c1ccccc1 [Nintedanib, reference compound]

>  <CC50 / µM>
4

$$$$
>  <compound>
O=C1NC(=O)C(Cc2ccc(OCCC3CCN(C(=O)OCc4cc(Cl)cc(Cl)c4)CC3)cc2)S1 (centres unmarked) [EL244]

>  <CC50 / µM>
81.2

$$$$

Kindly consider the entry below.
## Input Report CC50 for Cc1c(C)c2c(c(C)c1O)CCC(C)(COc1ccc(CC3SC(=O)NC3=O)cc1)O2 (centres unmarked) [TGZ, troglitazone, reference compound] please.
## Output 34

---

assay-remarks: Mouse metabolic clearance and half-life in vitro
Overview of reported microsomal CLint at 0.1 μM across a group of compounds:
Lab book: enter the figure in µL/min/mg, no units written.

>  <compound>
COC(=O)c1ccc2c(c1)NC(=O)/C2=C(\Nc1ccc(N(C)C(=O)CN2CCN(C)CC2)cc1)c1ccccc1 [Nintedanib, reference compound]

>  <microsomal CLint at 0.1 μM / µL/min/mg>
122

$$$$
>  <compound>
O=C(CCN1CCN(C(=O)OCc2cc(Cl)cc(Cl)c2)CC1)c1ccc2[nH]c(=O)oc2c1 [PF-8380, reference compound]

>  <microsomal CLint at 0.1 μM / µL/min/mg>
766

$$$$

Kindly consider the entry below.
## Input Report microsomal CLint at 0.1 μM for O=C1NC(=O)C(Cc2ccc(OCCC3CCN(C(=O)OCc4cc(Cl)cc(Cl)c4)CC3)cc2)S1 (stereo not drawn) please.
## Output 114

---

assay-remarks: in vitro
reported-conditions: mouse
endpoint-name: half-life at 0.1 μM

## Input Report half-life at 0.1 μM for COC(=O)c1ccc2c(c1)NC(=O)/C2=C(\Nc1ccc(N(C)C(=O)CN2CCN(C)CC2)cc1)c1ccccc1 [Nintedanib, reference compound] please.
## Output 58 min

---

Overview of reported EC50 across a group of molecules:
tested-system: PPARγ (Homo sapiens, UniProt P37231)
Sequence (P37231 238-503 limits assumed): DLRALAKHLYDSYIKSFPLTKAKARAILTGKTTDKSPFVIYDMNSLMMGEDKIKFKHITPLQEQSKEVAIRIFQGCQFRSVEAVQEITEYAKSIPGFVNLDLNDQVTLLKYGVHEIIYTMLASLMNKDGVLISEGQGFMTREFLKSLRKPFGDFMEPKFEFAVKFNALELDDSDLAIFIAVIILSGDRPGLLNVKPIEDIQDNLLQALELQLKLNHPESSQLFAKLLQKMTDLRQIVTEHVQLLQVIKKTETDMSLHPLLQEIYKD
assay-remarks: PPARγ Gal4 hybrid reporter gene assay
reported-conditions: Gal4-hybrid reporter, HEK293T cells
Lab book: enter the figure in nM, no units written.

## Input Report EC50 for O=C1NC(=O)C(Cc2ccc(OCCN3CCN(C(=O)OCc4cc(Cl)cc(Cl)c4)CC3)cc2)S1 (stereo not drawn) [Compound 5] please.
## Output 1500

## Input Report EC50 for O=C1NC(=O)C(Cc2ccc(OCCC3CCN(C(=O)OCc4cc(Cl)cc(Cl)c4)CC3)cc2)S1 (stereo not drawn) [EL244] please.
## Output 1300

## Input Report EC50 for N#Cc1sc(NCCOc2ccc(CC3SC(=O)NC3=O)cc2)nc1-c1ccc(F)cc1 (stereo not drawn) [Compound 4] please.
## Output 1000

---

assay-remarks: PK of EL244: plasma and lung levels after i.p. or inhaled administration
Assay type: in vivo, mice
reported-conditions: mouse, plasma, ip; i.p. 30 mg/Kg, 1 hour
endpoint-name: concentration at 1 h (µM)
Lab book: enter the figure in µM, no units written.

## Input Report concentration at 1 h for O=C1NC(=O)C(Cc2ccc(OCCC3CCN(C(=O)OCc4cc(Cl)cc(Cl)c4)CC3)cc2)S1 (stereo not shown) please.
## Output 40

---

assay-remarks: Mouse metabolic clearance and half-life in vitro
Overview of reported half-life at 0.1 μM across a group of compounds:
Lab book: enter the figure in min, no units written.

>  <compound>
O=C1NC(=O)C(Cc2ccc(OCCN3CCN(C(=O)OCc4cc(Cl)cc(Cl)c4)CC3)cc2)S1 (stereo not drawn)

>  <endpoint-name>
half-life at 0.1 μM

>  <unit-abbreviation>
min

>  <value-measured>
21

$$$$

## Input Report half-life at 0.1 μM for O=C1NC(=O)C(Cc2ccc(OCCC3CCN(C(=O)OCc4cc(Cl)cc(Cl)c4)CC3)cc2)S1 (stereo not drawn) please.
## Output 61

---

tested-system: hERG (Homo sapiens, UniProt Q12809)
Sequence (Q12809 whole entry): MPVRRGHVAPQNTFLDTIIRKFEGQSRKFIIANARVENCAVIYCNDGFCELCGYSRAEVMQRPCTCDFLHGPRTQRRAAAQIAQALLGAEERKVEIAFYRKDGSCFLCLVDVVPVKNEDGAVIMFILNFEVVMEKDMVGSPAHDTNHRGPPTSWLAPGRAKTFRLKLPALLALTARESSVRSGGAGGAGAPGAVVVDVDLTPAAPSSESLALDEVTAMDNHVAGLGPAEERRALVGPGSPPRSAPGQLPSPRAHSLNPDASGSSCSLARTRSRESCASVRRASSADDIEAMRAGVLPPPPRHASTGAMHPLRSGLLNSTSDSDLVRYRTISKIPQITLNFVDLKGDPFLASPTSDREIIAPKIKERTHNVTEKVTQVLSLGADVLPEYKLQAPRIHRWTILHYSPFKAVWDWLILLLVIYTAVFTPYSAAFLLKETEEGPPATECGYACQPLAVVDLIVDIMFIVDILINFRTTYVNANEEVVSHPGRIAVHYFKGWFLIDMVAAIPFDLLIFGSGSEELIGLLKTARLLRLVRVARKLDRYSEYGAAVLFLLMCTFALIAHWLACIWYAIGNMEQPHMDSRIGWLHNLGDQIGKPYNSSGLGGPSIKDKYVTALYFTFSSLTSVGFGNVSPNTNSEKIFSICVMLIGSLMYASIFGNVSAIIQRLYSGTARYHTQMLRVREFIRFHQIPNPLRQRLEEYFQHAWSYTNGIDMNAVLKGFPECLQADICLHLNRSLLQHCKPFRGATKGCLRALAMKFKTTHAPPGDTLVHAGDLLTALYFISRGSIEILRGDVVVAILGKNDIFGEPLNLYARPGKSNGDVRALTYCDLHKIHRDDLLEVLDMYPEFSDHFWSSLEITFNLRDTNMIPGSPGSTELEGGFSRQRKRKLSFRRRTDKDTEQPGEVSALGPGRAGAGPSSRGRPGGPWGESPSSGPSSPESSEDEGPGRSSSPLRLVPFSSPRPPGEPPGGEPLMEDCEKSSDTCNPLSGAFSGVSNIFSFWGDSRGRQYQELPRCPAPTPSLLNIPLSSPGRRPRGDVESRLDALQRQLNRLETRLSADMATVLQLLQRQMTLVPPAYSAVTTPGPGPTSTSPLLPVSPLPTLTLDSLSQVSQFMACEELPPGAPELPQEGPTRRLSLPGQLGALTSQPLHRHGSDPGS
assay-remarks: hERG inhibition
Type: biochemical
reported-conditions: human, 25 μΜ
endpoint-name: inhibition at 25 μM

## Input Report inhibition at 25 μM for O=C1NC(=O)C(Cc2ccc(OCCC3CCN(C(=O)OCc4cc(Cl)cc(Cl)c4)CC3)cc2)S1 (stereo not shown) [EL244] please.
## Output ~12%

---

tested-system: ATX (Homo sapiens, UniProt Q13822)
assay-remarks: Amplex Red assay: ATX inhibitory activity in vitro
reported-conditions: Amplex Red assay, in vitro
Param label: returns Met when IC50 < 500 nM, returns Not met otherwise, including exact equality.

## Input Please state whether IC50 is below 500 nM for Cc1c(C)c2c(c(C)c1O)CCC(C)(COc1ccc(CC3SC(=O)NC3=O)cc1)O2 (stereo not shown) [TGZ, troglitazone, reference compound]
## Output Not met

## Input Please state whether IC50 is below 500 nM for O=C1NC(=O)C(Cc2ccc(OCCC3CCN(C(=O)OCc4cc(Cl)cc(Cl)c4)CC3)cc2)S1 (stereo not shown) [EL244]
## Output Met

---

tested-system: ATX (Homo sapiens)
assay-remarks: Amplex Red assay: ATX inhibitory activity in vitro
reported-conditions: Amplex Red assay, in vitro
endpoint-name: IC50 (µM)
Lab book: enter the figure in µM, no units written.

Examples from the recorded data:
>  <compound>
N#Cc1sc(NCCOc2ccc(CC3SC(=O)NC3=O)cc2)nc1-c1ccc(F)cc1 (centres unmarked)

>  <unit-abbreviation>
µM

>  <value-measured>
0.94

$$$$
>  <compound>
N#Cc1sc(NCCOc2ccc(/C=C3/SC(=O)NC3=O)cc2)nc1-c1ccc(F)cc1

>  <unit-abbreviation>
µM

>  <value-measured>
2

$$$$
>  <compound>
Cc1c(C)c2c(c(C)c1O)CCC(C)(COc1ccc(/C=C3/SC(=O)N(Cc4ccc(F)cc4)C3=O)cc1)O2 (centres unmarked)

>  <unit-abbreviation>
µM

>  <value-measured>
17.8

$$$$

## Input Report IC50 for O=C1NC(=O)C(Cc2ccc(OCCN3CCN(C(=O)OCc4cc(Cl)cc(Cl)c4)CC3)cc2)S1 (centres unmarked) please.
## Output 0.29

## Input Report IC50 for O=C1NC(=O)/C(=C\c2ccc(OCCN3CCN(C(=O)OCc4cc(Cl)cc(Cl)c4)CC3)cc2)S1 please.
## Output 2

## Input Report IC50 for COc1cc(-c2ccc(N=Nc3ccc4c(S(=O)(=O)O)cc(S(=O)(=O)O)c(N)c4c3O)c(OC)c2)ccc1N=Nc1ccc2c(S(=O)(=O)O)cc(S(=O)(=O)O)c(N)c2c1O [CSB, Chicago Sky Blue 6B, reference compound] please.
## Output 1.6
